system: Streptococcus pyogenes SSI-9; assay: Antibacterial activity assay of bead-derived peptides (three concentrations); assay type: cell-based; design: key: +++: inhibition by the 640-fold diluted peptide solution; ++: inhibition by the 160-fold diluted solution; +: inhibition by the 40-fold diluted solution; -: no inhibition; details: S. pyogenes, bead-derived peptide solution, three concentrations
Where a SMILES comes first, the peptide text is derived from it. [ ]: non-standard residue; d: D form. The star is where a group is joined. NHCH2CH2OH = OCCN*; For = O=C*
readoutLabel: antibacterial activity

1) CNC(=O)C[C@@H](NC(=O)[C@H](Cc1c[nH]c2ccccc12)NC(=O)[C@H](NC(=O)[C@H](Cc1c[nH]c2ccccc12)NC(=O)[C@@H](CC(C)C)NC(=O)[C@H](Cc1c[nH]c2ccccc12)NC(=O)[C@H](NC(=O)[C@@H](NC(=O)[C@@H](CC(C)C)NC(=O)[C@H](C)NC(=O)[C@H](NC(=O)[C@H](C)NC(=O)CNC(=O)[C@@H](NC=O)C(C)C)C(C)C)C(C)C)C(C)C)C(C)C)C(=O)N[C@@H](Cc1c[nH]c2ccccc12)C(=O)NCCO [compound 9727] (For-VGA[dV]A[dL]V[dV]W[dL]W[dV]W[dD](NHMe)W-NHCH2CH2OH) | -
2) CC(C)C[C@@H](NC(=O)[C@H](Cc1c[nH]c2ccccc12)NC(=O)[C@H](NC(=O)[C@@H](NC(=O)[C@H](NC(=O)[C@H](C)NC(=O)[C@H](NC(=O)[C@H](C)NC(=O)CNC(=O)[C@@H](NC=O)C(C)C)C(C)C)C(C)C)C(C)C)[C@H](C)O)C(=O)N[C@@H](Cc1c[nH]c2ccccc12)C(=O)N[C@@H](C(=O)N[C@@H](Cc1c[nH]c2ccccc12)C(=O)N[C@@H](C(=O)N[C@@H](Cc1c[nH]c2ccccc12)C(=O)NCCO)C(C)C)C(C)C [compound 9910] (For-VGA[dV]A[dV]V[dT]W[dL]W[dV]W[dV]W-NHCH2CH2OH) | -
